Molecular target: E. coli DdlB enzyme (D-alanine:D-alanine ligase) (Escherichia coli)
Construct: made in house; host or cells: E. coli
Experiment: biochemical
Conditions: tested concentration 3.2 mM; read-out: DdlB RA
# remaining activity at 3200 µM per record follows
readout: remaining activity at 3200 µM (%)

molecule=OB(O)c1ccc(F)c(F)c1 value_reported=88
molecule="Cc1ccn(C(C)C(=O)O)n1 (stereo not drawn)" value_reported=95
molecule=O=C(O)CCc1cc(=O)[nH]o1 value_reported=91
molecule=Oc1nonc1N1CCCC1 value_reported=116
molecule=NS(=O)(=O)c1ccccc1 value_reported=96
molecule=Cc1cc(N)nn1CC(=O)O value_reported=57

Data credit: paper PMC9718554
